ASSAY TARGET: human ether-à-go-go-related gene (hERG) potassium channel (human, UniProt Q12809);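 further: peak tail current of the secondary pulse compared with the same well before compound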
Sequence (Q12809 whole entry, looked up): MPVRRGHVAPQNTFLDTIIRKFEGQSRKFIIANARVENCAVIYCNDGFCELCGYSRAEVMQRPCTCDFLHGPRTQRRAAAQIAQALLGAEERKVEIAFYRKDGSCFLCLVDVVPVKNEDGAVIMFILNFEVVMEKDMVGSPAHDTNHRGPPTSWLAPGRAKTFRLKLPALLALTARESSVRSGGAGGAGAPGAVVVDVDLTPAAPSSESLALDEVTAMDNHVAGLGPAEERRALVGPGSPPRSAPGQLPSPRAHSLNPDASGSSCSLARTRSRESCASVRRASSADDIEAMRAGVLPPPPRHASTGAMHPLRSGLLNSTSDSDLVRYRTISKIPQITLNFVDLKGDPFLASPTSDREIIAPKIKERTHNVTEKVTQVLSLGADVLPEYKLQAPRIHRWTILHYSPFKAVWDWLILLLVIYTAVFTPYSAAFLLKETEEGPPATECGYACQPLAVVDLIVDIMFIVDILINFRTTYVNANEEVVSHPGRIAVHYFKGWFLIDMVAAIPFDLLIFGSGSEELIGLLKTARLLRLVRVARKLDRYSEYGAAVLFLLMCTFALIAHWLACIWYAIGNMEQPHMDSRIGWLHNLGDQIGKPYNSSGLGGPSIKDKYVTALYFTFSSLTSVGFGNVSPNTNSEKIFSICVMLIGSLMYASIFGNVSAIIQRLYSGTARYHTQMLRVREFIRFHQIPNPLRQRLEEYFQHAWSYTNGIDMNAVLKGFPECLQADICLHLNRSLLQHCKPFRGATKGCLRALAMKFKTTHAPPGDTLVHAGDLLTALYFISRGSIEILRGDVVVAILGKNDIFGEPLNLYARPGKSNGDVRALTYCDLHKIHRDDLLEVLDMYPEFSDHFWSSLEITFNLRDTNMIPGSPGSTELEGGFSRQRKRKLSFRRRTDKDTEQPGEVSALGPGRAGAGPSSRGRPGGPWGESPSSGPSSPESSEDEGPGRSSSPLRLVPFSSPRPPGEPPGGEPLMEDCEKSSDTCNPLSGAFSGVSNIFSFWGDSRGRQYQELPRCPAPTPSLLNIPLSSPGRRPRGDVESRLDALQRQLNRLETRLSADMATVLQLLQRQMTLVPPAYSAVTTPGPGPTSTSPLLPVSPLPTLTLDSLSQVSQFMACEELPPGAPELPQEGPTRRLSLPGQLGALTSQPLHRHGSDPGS
PROTOCOL: primary screen, population patch clamp on CHO cells stably expressing hERG; higher = less effect of the substance
Protocol: Briefly, Chinese hamster ovary (CHO) cells stably expressing the hERG channel were dislodged from tissue culture flasks and dispensed into PPC plates. […] During the recording, background leak currents were estimated by a 100 ms step to -80 mV from an initial holding potential of -70 mV and subtracted from the subsequent current measurement. The campaign was conducted in two phases using slight differences in recording protocol. […]
The campaign covered roughly 310,000 compounds. About 14,000 (4.5%) showed an effect of 50% or more. The effect is printed as a negative number. The entries come from a sample that favours strong results as a whole.
QUANTITY KIND: hERG current change (%, negative = inhibition) at 10uM (%)
Field: numeric (%). Do not append units.

Suppose we examine the compound CC(=O)Nc1ccccc1C(=O)N1CCN(Cc2ccccc2)CC1 ; what hERG current change (%, negative = inhibition) at 10uM value has been reported?
5.02

Need hERG current change (%, negative = inhibition) at 10uM of COc1cc(CN2CCCC(C(=O)c3ccccc3SC)C2)cc(OC)c1 (stereo not drawn) , thanks.
-74.4

Endpoint output: hERG current change (%, negative = inhibition) at 10uM of Cc1onc(-c2ccccc2)c1C(=O)N(C)CCc1ccccn1 . Value?
7.12

So what does the record say about hERG current change (%, negative = inhibition) at 10uM for CN(C)CCN(C(=O)c1ccc2ccccc2c1)c1nc2c(F)cccc2s1.Cl ?
-10.2

Request the reported hERG current change (%, negative = inhibition) at 10uM associated with COc1ccc2cc(C(=O)C3CCCN(Cc4cccc(C)n4)C3)ccc2c1 (stereo not drawn)
-66.5

Requested read-out: hERG current change (%, negative = inhibition) at 10uM. Entry: O=C(CCS(=O)(=O)c1ccc(F)cc1)Nc1nc(-c2ccccn2)cs1
-12.6

Would you kindly share the measured hERG current change (%, negative = inhibition) at 10uM for Cc1cc(C)nc(NC2=NCC(=O)N2c2ccccc2Br)n1 ?
8.96

Give its hERG current change (%, negative = inhibition) at 10uM value. Item: O=C(N/N=C/c1ccncc1)c1cccc(NC(=O)c2ccccc2Cl)c1
-2.33

Recorded hERG current change (%, negative = inhibition) at 10uM for COc1ccc(Oc2ccc(C(F)(F)F)cc2NC(=O)c2ccc(OC)cc2)cc1 , please?
12.5

Quick one: hERG current change (%, negative = inhibition) at 10uM of c1ccc(SCc2cn(C[C@H]3CC[C@@H]([C@@H]4CC[C@H](Cn5cc(CSc6ccccc6)nn5)O4)O3)nn2)cc1 ?
-62.1

Sample COc1ccc(Oc2ccc(C(F)(F)F)cc2NC(=O)c2ccc(F)cc2)cc1 — what was its hERG current change (%, negative = inhibition) at 10uM?
6.56

Suppose we examine the compound COc1cnc(-c2ccccn2)nc1N(C)C ; what hERG current change (%, negative = inhibition) at 10uM value has been reported?
-1.39

Name the recorded hERG current change (%, negative = inhibition) at 10uM for O=C(Nc1ccc(Oc2ccccc2)nc1)C1CCCCN1Cc1ccc(O)cc1 (stereo not drawn) .
-25.2

Item under review: COc1c(C)cc(C(=O)C2CCCN(Cc3cccc(C)n3)C2)cc1C (stereo not drawn) . Reported hERG current change (%, negative = inhibition) at 10uM?
-48.7

Return reported hERG current change (%, negative = inhibition) at 10uM; argument: NC(=O)C1CCN(CC(=O)N2c3ccccc3CCc3ccccc32)CC1
19.3

Returns the measured hERG current change (%, negative = inhibition) at 10uM for the input compound. Input: Cc1noc(C)c1CSCC(=O)N(CCC(C)C)c1c(N)n(Cc2ccccc2)c(=O)[nH]c1=O
21.4

Given the entry CCOC(=O)N1CCN(C(=O)CNC(=O)c2nn(-c3ccc(OC)cc3OC)c(=O)c3ccccc23)CC1 , report its measured hERG current change (%, negative = inhibition) at 10uM.
-4.94

Data request, read-out hERG current change (%, negative = inhibition) at 10uM, for O=C(CSc1ccc(F)cc1)Nc1ccc(N2CCOCC2)c(Cl)c1
-20.3

I would be grateful if you could share the reported hERG current change (%, negative = inhibition) at 10uM for ClCCCc1cn(C[C@H]2CC[C@@H]([C@@H]3CC[C@H](Cn4cc(CCCCl)nn4)O3)O2)nn1 .
-33.6

Item OCCCc1cn(CC2CCCCC2)nn1 has what recorded hERG current change (%, negative = inhibition) at 10uM?
2.61

Please report the recorded hERG current change (%, negative = inhibition) at 10uM for CCOc1ccc2nc(N(CCN(C)C)C(=O)c3ccc4ccccc4c3)sc2c1.Cl .
4.67
